# protocol-description: Solubility in water
# Assay type: physicochemical
property: solubility (µg/mL)
Numbers only, in µg/mL.

Req: Quick check: solubility of NC1=NC(=O)/C(=C2\CCNC(=O)c3[nH]ccc32)N1 ?
Resp: 22

* * *

# protocol-description: log P (partition coefficient)
# Type: physicochemical
property: logP

Req: Value lookup for logP; key = NC1=NC(=O)/C(=C2\CCNC(=O)c3[nH]ccc32)N1
Resp: -0.58

* * *

# System: TCF/LEF dependent reporter gene (wnt/beta-catenin signaling) in HEK293 cells
# protocol-description: Top-flash assay: HEK293 cells transfected with a TCF/LEF dependent reporter gene
# Assay type: cell-based
# test-conditions: Homo sapiens; HEK293 cells, TCF/LEF dependent reporter gene; read-out: IC50 from dose response curve, HEK293 cell line assay
property: IC50
Form entry: enter the amount, then its unit.

Req: Give the measured IC50 of NC1=NC(=O)/C(=C2\CCNC(=O)c3[nH]ccc32)N1 [debromohymenialdesine] .
Resp: 2000 nM
